- Test system: NF-κB pathway in THP-1 dual cells
- assay-remarks: THP-1 Dual Reporter Assay, NF-κB pathway (SEAP reporter)
- Assay type: cell-based
- test-conditions: Homo sapiens, THP1-Dual, 18 h of stimulation, absorbance at 630 nm, read-out: THP1 Dual EC50 (μM) NFkB
reported-endpoint: EC50

O=c1c(CN(CCCn2ccnc2)Cc2ccncc2)coc2ccc(F)cc12 [Example 29] yielded EC50 of 10 to 20 µM

# compound COc1ccc2ccc3c(=O)c(CN(CCCc4cccnc4)Cc4ccncc4)coc3c2c1 [Example 52] ; its EC50 = ≤ 10 µM

Measured EC50 of COc1ccc(-c2ccc3c(=O)c(CN(CCCn4ccnc4)Cc4ccncc4)coc3c2)cc1 [Example 32] : ≥ 20 µM

Given item COc1cc(CN(Cc2cn(C)c3ccccc3c2=O)C(C)CCc2cccnc2)ccn1 (stereo not shown) [Example 97] , the value recorded as its EC50 is ≤ 10 µM

The measured EC50 associated with O=c1c(CN(CCCn2ccnc2)Cc2ccncc2)c[nH]c2ccccc12 [Example 74] reads ≥ 20 µM

Note to self: EC50 recorded for COc1cc(CN(CCCc2cc[nH]c(=O)c2)Cc2coc3c(ccc4ccccc43)c2=O)ccn1 [Example 93] was ≥ 20 µM

Note to self: EC50 recorded for O=c1c(CN(CCCn2ccnc2)Cc2ccncc2)coc2cc(F)ccc12 [Example 11] was ≥ 20 µM

Recorded EC50 (compound COc1cc(CN(CCCc2cccnc2)Cc2n[nH]c3ccccc3c2=O)ccn1 [Example 98] ): ≥ 20 µM

Notebook: Cc1oc2cc(N3CCN(C)CC3)c(F)cc2c(=O)c1CN(CCCn1cnc2cncnc21)Cc1ccncc1 [Example 79] , EC50 read as ≤ 10 µM

Just so you know, measured EC50 for O=c1c(CN(CCCc2cncc3ccccc23)Cc2ccncc2)coc2c1ccc1ccccc12 [Example 61] came out at ≥ 20 µM

For record O=c1c(CN(CCCn2ccnc2)Cc2ccncc2)coc2cc(O)ccc12 [Example 16] the listed EC50 is ≥ 20 µM

Looking up COc1ccccc1-c1ccc2c(=O)c(CN(CCCn3ccnc3)Cc3ccncc3)coc2c1 [Example 39] , I found its EC50 recorded as 10 to 20 µM

Cited source: patent US12162863B2
